Attribute: Emax at 10 µM
measured.on: human PPARγ receptor (Homo sapiens, UniProt P37231)
Construct: expressed in transfected cells; host or cells: CV-1 cells, pSG5-based Gal4-PPAR expression vector
Sequence (P37231 204-505): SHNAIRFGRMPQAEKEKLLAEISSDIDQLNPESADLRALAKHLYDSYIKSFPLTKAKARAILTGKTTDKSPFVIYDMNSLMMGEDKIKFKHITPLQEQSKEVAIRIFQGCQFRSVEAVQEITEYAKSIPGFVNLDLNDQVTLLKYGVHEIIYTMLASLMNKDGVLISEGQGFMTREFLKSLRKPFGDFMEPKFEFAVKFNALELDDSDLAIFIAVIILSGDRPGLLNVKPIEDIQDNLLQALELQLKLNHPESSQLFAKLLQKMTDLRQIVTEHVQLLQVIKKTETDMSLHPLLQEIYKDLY
measurement.protocol: Luciferase assay using human PPARγ receptor (Gal4 chimera, CV-1 cells)
Format: cell-based
run.conditions: 24 h, 10 μM, luciferase activity of Pioglitazone at 1 μM = 100, read-out: PPARγ agonist activity, Relative activity
Please give the number followed by its unit.

compound: COc1cc2cc(CC(C)(Oc3ccc(C(C)C)cc3)C(=O)O)sc2cc1OC (centres unmarked)
property.label: Emax at 10 µM
value.reported: 86.1%
--
compound: CCOC(=O)C(C)(Cc1cc2ccccc2s1)C(N)=O (centres unmarked)
property.label: Emax at 10 µM
value.reported: 0.3%
--
compound: CC(Cc1cc2ccccc2s1)(C(=O)O)C(=O)N1CCOCC1 (centres unmarked)
property.label: Emax at 10 µM
value.reported: 0.3%
--
compound: COc1cc2cc(CC(C)(Oc3ccc(C#N)cc3)C(N)=O)sc2cc1OC (centres unmarked)
property.label: Emax at 10 µM
value.reported: 1.1%

Would you kindly look at the next entry?
Sample CC(Cc1cc2ccccc2s1)(C(=O)O)C(=O)NC1CCCCC1 (centres unmarked) — what was its Emax at 10 µM? 31.2%

----------
# Emax at 0.1 µM per entry
measured.on: human PPARα receptor (Homo sapiens, UniProt Q07869)
Construct: and; expressed in transfected cells; host or cells: CV-1 cells, pSG5-based Gal4-PPAR expression vector
Sequence (Q07869 167-468): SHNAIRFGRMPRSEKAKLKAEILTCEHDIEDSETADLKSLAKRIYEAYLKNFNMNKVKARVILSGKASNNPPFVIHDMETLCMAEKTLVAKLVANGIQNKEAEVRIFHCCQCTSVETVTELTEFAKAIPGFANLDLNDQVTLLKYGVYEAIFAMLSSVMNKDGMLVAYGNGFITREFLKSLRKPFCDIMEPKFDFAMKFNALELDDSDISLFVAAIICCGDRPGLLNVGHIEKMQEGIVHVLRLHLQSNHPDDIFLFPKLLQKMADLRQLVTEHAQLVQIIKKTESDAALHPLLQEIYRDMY
measurement.protocol: Luciferase assay using human PPARα receptor (Gal4 chimera, CV-1 cells)
Type: cell-based
run.conditions: 24 h, 0.1 μM, luciferase activity of Wy-14.643 at 10 μM = 100, read-out: PPARα agonist activity, Relative activity
Structures can show the parent of a compound that is named as a salt.
Field format: number, assumed %, no unit text.

In the examples that follow, each entry is paired with its recorded Emax at 0.1 µM.
compound: CC(Cc1cc2ccccc2s1)(C(=O)O)C(=O)N1CCOCC1 (centres unmarked)
measured.on: human PPARα receptor (Homo sapiens, UniProt Q07869)
unit.symbol: %
Emax at 0.1 µM: 0.1
//
compound: CCCCNC(=O)C(C)(Cc1cc2cc(OC)c(OC)cc2s1)Oc1ccc(C#N)cc1 (centres unmarked)
measured.on: human PPARα receptor (Homo sapiens, UniProt Q07869)
unit.symbol: %
Emax at 0.1 µM: 0.2
//
compound: CC(C)c1ccc(NC(=O)C(C)(Cc2cc3ccccc3s2)C(=O)O)cc1 (centres unmarked)
measured.on: human PPARα receptor (Homo sapiens, UniProt Q07869)
unit.symbol: %
Emax at 0.1 µM: 0.2
//
compound: COc1cc2cc(CC(C)(Oc3ccc(C(C)C)cc3)C(=O)O)sc2cc1OC (centres unmarked)
measured.on: human PPARα receptor (Homo sapiens, UniProt Q07869)
unit.symbol: %
Emax at 0.1 µM: 13.2
//
compound: CCOC(=O)C(C)(Cc1cc2ccccc2s1)C(N)=O (centres unmarked)
measured.on: human PPARα receptor (Homo sapiens, UniProt Q07869)
unit.symbol: %
Emax at 0.1 µM: 0.1
//
compound: COc1cc2cc(CC(C)(Oc3ccc(C#N)cc3)C(N)=O)sc2cc1OC (centres unmarked)
measured.on: human PPARα receptor (Homo sapiens, UniProt Q07869)
unit.symbol: %
Emax at 0.1 µM: 0.2

Please state recorded Emax at 0.1 µM (tested on human PPARα receptor (Homo sapiens, UniProt Q07869)) of COc1cc2cc(CC(C)(Oc3ccc(C(=N)N4CCOCC4)cc3)C(=O)O)sc2cc1OC (centres unmarked) [Example 5, Hydrochloride] 0.2

Next entry: COc1cc2sc(CC(C)(Oc3ccc(C(C)C)cc3)C(=O)O)cc2c(Cl)c1OC (centres unmarked) 0.3
